- testedSystem: human SGLT1 (Homo sapiens, UniProt P13866)
- Sequence (P13866 whole entry): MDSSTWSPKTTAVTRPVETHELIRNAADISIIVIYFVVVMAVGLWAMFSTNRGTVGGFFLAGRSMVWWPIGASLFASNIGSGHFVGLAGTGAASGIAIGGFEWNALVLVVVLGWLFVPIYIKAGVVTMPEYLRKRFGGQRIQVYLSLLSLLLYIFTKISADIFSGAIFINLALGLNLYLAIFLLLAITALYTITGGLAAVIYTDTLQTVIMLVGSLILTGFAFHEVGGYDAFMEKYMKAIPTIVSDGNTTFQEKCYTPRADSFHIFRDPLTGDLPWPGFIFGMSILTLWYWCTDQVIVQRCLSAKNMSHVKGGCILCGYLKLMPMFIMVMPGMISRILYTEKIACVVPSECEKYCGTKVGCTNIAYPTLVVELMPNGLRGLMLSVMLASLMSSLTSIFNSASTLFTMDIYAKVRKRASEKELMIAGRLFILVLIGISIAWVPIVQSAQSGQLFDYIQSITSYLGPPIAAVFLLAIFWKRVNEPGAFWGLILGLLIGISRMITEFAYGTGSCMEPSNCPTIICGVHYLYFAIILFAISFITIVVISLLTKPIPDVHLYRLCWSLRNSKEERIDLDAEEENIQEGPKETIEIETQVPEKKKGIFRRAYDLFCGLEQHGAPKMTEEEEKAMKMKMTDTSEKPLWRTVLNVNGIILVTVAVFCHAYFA
- protocolSummary: Assay for inhibitory effects on human SGLT1 activity (uptake of methyl-α-D-glucopyranoside in CS1-5-11D cells)
- conditionParameters: CHO-K1 cells stably expressing human SGLT1 (CS1-5-11D); 50% inhibition of uptake of 1 mM 14C-labeled/non-labeled methyl-α-D-glucopyranoside, 37° C., 1 hour
metric: pIC50
# pIC50: negative log10 of molar concentration; output just the value

Prompt: Param item = OC[C@H]1O[C@@H](c2ccc3scc(CCc4ccccc4)c3c2)[C@H](O)[C@@H](O)[C@@H]1O [Example 1] ; retrieve measured pIC50.
Completion: 5.82

// data source = patent US8058245B2
